- Tested on: BxPC-3
- Test description: Cell proliferation assay, pancreatic cancer cell line BxPC-3
- Format: cell-based
- Assay setup: Homo sapiens
Experimental readout: IC50 (nM)

Worked examples follow.
{"columns": ["Query smiles", "Experimental target", "Reported value"],
 "data": [
  ["C[C@H]1Cc2c([nH]c3ccccc23)[C@H](c2ccc(N3CCC3)cc2)N1C(=O)CCl", "BxPC-3", 910],
  ["CCC[C@H]1Cc2c([nH]c3ccccc23)[C@H](c2ccc(N3CCOCC3)cc2)N1C(=O)CCl", "BxPC-3", 54.4],
  ["CC[C@H]1Cc2c([nH]c3ccccc23)[C@H](c2ccc(N3CCOCC3)cc2)N1C(=O)CCl", "BxPC-3", 86.7]
]}

A = CCCC[C@H]1Cc2c([nH]c3ccccc23)[C@H](c2ccc(N3CCOCC3)cc2)N1C(=O)CCl
B = COc1ccc2[nH]c3c(c2c1)C[C@H](C)N(C(=O)CCl)[C@H]3c1ccc(N2CCOCC2)cc1
Req: Hi there! Just curious which has the higher IC50 between A and B . Output the label that corresponds to your choice.
Resp: B
(B: 1020 nM, A: 71.1 nM)

Source listed as patent US11098040B2.
